ASSAY_TARGET: Nicotine receptor
EXPERIMENT: [3H]-cytisine displacement in rat brain membrane preparation
Format: binding
EXPERIMENTAL_CONTEXT: negative common logarithm of the concentration giving 50% displacement of specifically bound [3H]-cytisine; rat brain homogenate, 22° C., 60 min
Classification field: enter True for pI30 values not below 5, False for values below it.

See these solved cases before continuing.
COMPOUND: O=[N+]([O-])C=C1OCCN1Cc1ccc(Cl)nc1
CLASSIFICATION: True

COMPOUND: O=[N+]([O-])C=C1NCCN1Cc1ccc(Cl)c(F)c1
CLASSIFICATION: True

COMPOUND: N#CC=C1NCCN1Cc1ccc(Cl)nc1
CLASSIFICATION: True

Does CC(=NC#N)N(C)Cc1ccc(Cl)nc1 have a reported pI30 of at least 5?
True

Item O=[N+]([O-])C=C1NCCN1Cc1cnc(Cl)s1 with pI30 of 5 or above?
True

For this compound, is measured pI30 5 or higher? CN1CN(C)C(=N[N+](=O)[O-])N(Cc2ccc(Cl)nc2)C1
True

Could you please find out whether N#CC=C1CCCN1Cc1ccc(Cl)nc1 has pI30 that meets 5 or exceeds it?
True

Dear colleague, could you confirm whether Cc1ccc(CN2CCNC2=C[N+](=O)[O-])cn1 has pI30 at or above 5?
True

Determine whether this compound has pI30 no lower than 5: O=[N+]([O-])C=C1NCCN1Cc1cccnc1
True

Please indicate if the recorded pI30 for CC(=O)NCCN1CC([N+](=O)[O-])=C2N(Cc3ccc(Cl)nc3)CCN2C1 meets or exceeds 5.
True

# bool: pI30 of O=[N+]([O-])N=C1NCCN1Cc1cccnc1 >= 5
True

Textbook exercise: given the entry O=[N+]([O-])C=C1NCCN1Cc1ccncc1 , state whether its pI30 is greater than or equal to 5.
False

Say whether CCCC(c1ccc(F)cc1)N1CNC(NCc2ccc(Cl)nc2)=C([N+](=O)[O-])C1 (stereo not shown) shows pI30 of 5 or more.
True

Identify whether the reported pI30 of the following compound is 5 or greater: NC(=N[N+](=O)[O-])N1CCN(Cc2ccc(Cl)nc2)C1
False

Can O=[N+]([O-])C=C1NCCN1c1ccc(Cl)nc1 be said to have pI30 at or above 5?
False

Provenance of the data: patent US5547965A
